TGI values by entry
tested on: U251 CNS; assay: NCI tumour cell line growth inhibition, 48 h
reported-metric: TGI

compound | experimental-system | reported-metric | experimental-value
Cc1cc(C)c(S(=O)(=O)N2CCN(S(=O)(=O)c3c(C)cc(C)cc3C)OCCCCCO2)c(C)c1 | U251 CNS | TGI | > 100 µM
O=C1c2ccccc2-c2nnc(-c3ccc(Br)cc3)cc21 | U251 CNS | TGI | > 100 µM
CCCC1C(CC)C(NC)C(C#N)(C#N)C1(C#N)C#N (centres undefined) | U251 CNS | TGI | 95.1 µM
CCOP(=O)(O)C(Nc1ccc(N=Nc2ccccc2)cc1)c1ccc(C(Nc2ccc(N=Nc3ccccc3)cc2)P(=O)(O)OCC)cc1 (centres undefined) | U251 CNS | TGI | 33.5 µM
CCc1ccc(CNCC(O)c2ccccc2)cc1 (centres undefined) | U251 CNS | TGI | 43.1 µM
OC1(c2ccccc2)c2ccccc2NC2=NCCN21 (centres undefined) | U251 CNS | TGI | > 100 µM
CCN(CC)CCOc1ccc(N2C(=O)c3cccc4cc([N+](=O)[O-])cc(c34)C2=O)cc1 | U251 CNS | TGI | 22.6 µM
CCn1cc(C(=O)O)c(=O)c2cc(F)c(N3CCN(S(=O)(=O)c4ccc(Cl)cc4)CC3)cc21 | U251 CNS | TGI | > 100 µM
CNC(=S)Nc1sc2c(c1C#N)CCCC2 | U251 CNS | TGI | > 75 µM
Cn1c(O)c(C2=Nc3ccccc3C2=O)c2ccccc21 | U251 CNS | TGI | > 100 µM
COc1ccc(-c2cc(=O)c3c(OC)cccc3o2)c(OC)c1OC | U251 CNS | TGI | > 100 µM
O=C1C2C(C(=O)N1c1ccccc1)C1(Br)c3ccccc3C2(Br)C2C(=O)N(c3ccccc3)C(=O)C21 (centres undefined) | U251 CNS | TGI | > 31.6 µM
CCN(CC)C(=O)C[n+]1c2ccccc2n2cc(N)ccc21 | U251 CNS | TGI | > 100 µM
COc1ccccc1/C=C1\Sc2scc(-c3ccc(O)c(O)c3)[n+]2C1=O | U251 CNS | TGI | > 100 µM
O=C(O)c1cccc2cccc(-c3c4ccc(=O)cc-4oc4cc(O)ccc34)c12 | U251 CNS | TGI | > 100 µM
[Cl-].[Cl-].[Cl-].[O-]c1cccc2cccnc12.[O-]c1cccc2cccnc12.[O]=[Mo] | U251 CNS | TGI | 40.5 µM
COc1cc2ncn(-c3cc(O[C@H](C)c4ccccc4Cl)c(C(N)=O)s3)c2cc1OC | U251 CNS | TGI | > 25 µM
Cn1ncc2[nH]cnc2c1=S | U251 CNS | TGI | > 100 µM
Cc1ccc(S(=O)(=O)N/N=C2\CC3C4C=CC3C2C4)cc1 (centres undefined) | U251 CNS | TGI | > 100 µM
CC(C)c1cc(Cl)nc(Cl)n1 | U251 CNS | TGI | > 100 µM
COc1ccc(C(=O)c2cc(OC)c3c(c2)OCO3)cc1O | U251 CNS | TGI | > 100 µM
CN1CCN(C(=S)N(C(=O)c2cccs2)C2CCCCC2)CC1 | U251 CNS | TGI | > 100 µM
Cc1cc(O)c(C(=O)O)c2c1C(=O)c1c(O)c(OCC(O)C(O)C(O)C(O)CO)c(O)c(O)c1C2=O (centres undefined) (tested in a mixture with another compound) | U251 CNS | TGI | > 100 µM
CC1=NCCc2cc3[nH]c4ccccc4c3cc21 | U251 CNS | TGI | 79 µM
